What TGI was measured for each of the following?
Tested on: U251 CNS
Experiment: NCI tumour cell line growth inhibition, 48 h

// query TGI value for entry "Cc1cc(N/N=C/c2ccccn2)nc2ccccc12"
10.5 µM

Now the same for CC1CC(O)C(=O)C(O[C@@H]2C[C@@H]3CC[C@@H]4[C@H](CC[C@]5(C)C(C6=CC(=O)OC6)CC[C@]45O)[C@@]3(C=O)C[C@H]2O)O1 (stereo partly drawn)
< 0.0486 µM

Now the same for "NCCCN1CCN(CCCNc2ccc3nnn4c5ccccc5c(=O)c2c34)CC1"
> 100 µM

====

What TGI was measured for each of the following?
System: SK-MEL-28 melanoma
Experiment: NCI tumour cell line growth inhibition, 48 h
Field: numeric (µM). Do not append units.

// query TGI value for entry "COc1cc2c(Nc3cc(Cl)c(OC)c(Cl)c3)c(C#N)cnc2cc1OCCCN1CCN(C)CC1"
4.53

Now the same for CC(C)(C)[Si](C)(C)OC1[C@@H](CNC(=O)NC(=O)CCl)O[C@@H](n2cnc3c(N)ncnc32)[C@H]1O[Si](C)(C)C(C)(C)C (stereo not given in full)
4.12

====

What TGI was measured for each of the following?
Test system: NCI/ADR-RES ovarian
Assay: NCI tumour cell line growth inhibition, 48 h

// query TGI value for entry "COc1cc2c(/C=N\N=C(N)N)c[nH]c2cc1C"
59.4 µM

Now the same for "NNC1=N/C(=C\c2ccco2)C(Cl)=N1"
> 100 µM

Now the same for "O=C(O)c1cccc(COc2ccc([N+](=O)[O-])cc2Cl)c1"
> 100 µM

Now the same for "NCCCN1CCN(CCCNc2ccc3nnn4c5ccccc5c(=O)c2c34)CC1"
> 100 µM

Now the same for "CCc1c[n+]([O-])c(C)cc1[N+](=O)[O-]"
> 100 µM

Now the same for "CCCC/C(=C\C1=C(C)C(=O)C(OC)=C(OC)C1=O)C(=O)O"
> 100 µM

Now the same for "O=C(NCCCN(CCCCN(CCCNC(=O)C(F)(F)F)Cc1ccc2ccccc2c1)Cc1ccc2ccccc2c1)C(F)(F)F"
> 100 µM

Now the same for "CC(=O)O[C@H]1C(=O)[C@@]2(C)[C@H]([C@H](OC(=O)c3ccc(F)cc3)[C@]3(O)C[C@H](OC(=O)[C@H](O)[C@@H](NC(=O)c4ccccc4)c4ccccc4)C(C)=C1C3(C)C)[C@]1(OC(C)=O)CO[C@@H]1C[C@@H]2O"
> 25 µM

Now the same for COc1ccc(S(=O)(=O)N2C(=O)CCC2C(=O)NN)cc1 (centres undefined)
> 100 µM

====

Test system: SK-MEL-2 melanoma
Assay: NCI tumour cell line growth inhibition, 48 h
What GI50 was measured for each of the following?

Entry "Cc1cc(N/N=C/c2ccccn2)nc2ccccc12" , system SK-MEL-2 melanoma: what GI50 was measured?
4.89 µM

Now the same for "COc1ccc(-c2nccn2-c2ccc(OC)cc2)cc1"
25.3 µM

Now the same for "C#CCOc1cccc(Nc2ncnc3c(NC(=O)C=C)cccc23)c1"
19.8 µM

Now the same for "Cc1ccc(OCCOCCOCCOCCOc2ccc(C)n(O)c2=S)c(=S)n1O"
4.86 µM

Now the same for "O=C(c1ccco1)c1c(C(F)(F)F)n([O-])c2ccc(C(F)(F)F)cc2[n+]1=O"
1.71 µM

Now the same for "c1ccc2c(c1)[nH]c1c2cc[n+]2cc3c(cc12)CCCC3"
1.44 µM
